These entries and their values trace back to patent US11859021B2.

- protocol details: Solubility test in demineralized water
- Assay type: physicochemical
- measurement conditions: 0.3 mM, film, sonicated, overnight
observable: Appearance at RT

CCCCCCCCCCCCCCCCCC(=O)OC[C@H]1OC(O)[C@H](NC(C)=O)[C@@H](O[C@H](C)C(=O)N[C@@H](C)C(=O)N[C@H](CCC(=O)O)C(N)=O)[C@@H]1O (stereo partly drawn) [MDP-C18[mur], reference compound] ... Clear
CCCCCCCCCCCCCCCCCC(=O)OCc1cn(CCCC[C@H](NC(=O)CC[C@@H](NC(=O)[C@H](C)NC(=O)[C@@H](C)O[C@H]2[C@H](O)[C@@H](CO)OC(OCc3ccccc3)[C@@H]2NC(C)=O)C(N)=O)C(N)=O)nn1 (stereo partly drawn) [Example 9, MTP-b-C18[Invclick]] ... Precipitate
CCCCCCCCCCCCCCCCCCNC(=O)CC[C@@H](NC(=O)[C@H](C)NC(=O)[C@@H](C)O[C@H]1[C@H](O)[C@@H](CO)OC(O)[C@@H]1NC(C)=O)C(N)=O (stereo partly drawn) ... Precipitate
CCCCCCCCCCCCCCCCCC(=O)OC[C@H](COP(=O)(O)OCCNC(=O)Cn1cc(CNC(=O)CC[C@@H](NC(=O)[C@H](C)NC(=O)[C@@H](C)O[C@H]2[C@H](O)[C@@H](CO)OC(OCc3ccccc3)[C@@H]2NC(C)=O)C(N)=O)nn1)OC(=O)CCCCCCCCCCCCCCCCC (stereo partly drawn) [Example 7, MDP(Bn)-DSPE [Click]] ... Hazy
